The values you see were collected from patent US8895558B2.

target: human recombinant serotonin 5-HT2A receptor (Homo sapiens, UniProt P28223); experiment: Binding affinity for serotonin 5-HT2A receptor ([3H]Ketanserin); settings: CHO-K1 expressed receptor, 1 nM [3H]Ketanserin
Sequence (P28223 whole entry): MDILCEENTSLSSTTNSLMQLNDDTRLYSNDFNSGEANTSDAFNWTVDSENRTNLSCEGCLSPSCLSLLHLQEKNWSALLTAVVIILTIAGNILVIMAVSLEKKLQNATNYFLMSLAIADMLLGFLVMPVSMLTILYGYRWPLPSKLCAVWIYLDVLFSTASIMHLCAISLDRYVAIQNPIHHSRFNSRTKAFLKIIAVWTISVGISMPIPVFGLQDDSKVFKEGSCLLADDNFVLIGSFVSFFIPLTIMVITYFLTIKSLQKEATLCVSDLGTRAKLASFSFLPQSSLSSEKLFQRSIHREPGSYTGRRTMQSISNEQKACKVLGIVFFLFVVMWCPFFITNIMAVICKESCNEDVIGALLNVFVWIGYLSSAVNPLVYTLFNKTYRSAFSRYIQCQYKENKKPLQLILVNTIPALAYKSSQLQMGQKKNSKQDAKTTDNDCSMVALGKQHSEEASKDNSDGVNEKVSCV
Counter-ions that a name gives are not always drawn.
Here the recorded log10(IC50) is given for each entry.
endpoint: log10(IC50) (log10 of the value in nM)

>>> value_measured("Cc1c(C(=O)NCCCCN2CCN(c3cccc(Cl)c3Cl)CC2)cc(-c2ccccc2)n1C [Example 36, hydrochloride]")
1.45
>>> value_measured("CCCn1c(-c2ccccn2)cc(C(=O)NCCCN2CCN(c3cccc(Cl)c3Cl)CC2)c1C [Example 93, dihydrochloride]")
1.76
>>> value_measured("COc1ccc(-c2cc(C(=O)NCCCN3CCN(c4cccc(Cl)c4Cl)CC3)c(C)[nH]2)cc1 [Example 73, hydrochloride]")
1.57
>>> value_measured("Cc1c(C(=O)NCCCN2CCN(c3cc(Cl)ccc3Cl)CC2)cc(-c2ccccc2)n1C")
2.77
>>> value_measured("Cc1ccc2cccc(N3CCN(CCNC(=O)c4cc(C(C)(C)C)n(C)c4C)CC3)c2n1")
3.17
>>> value_measured("CCCn1c(-c2ccc(Cl)cc2)cc(C(=O)NCCCN2CCN(c3cccc(Cl)c3Cl)CC2)c1C [Example 66, hydrochloride]")
2.52
>>> value_measured("Cc1c(C(=O)NCCN2CCN(c3cccc(Cl)c3F)CC2)cc(C(C)(C)C)n1C")
2.08
>>> value_measured("CCCn1c(-c2ccccc2)cc(C(=O)NCCCN2CCN(c3cccc(Cl)c3Cl)CC2)c1Cl")
1.84
>>> value_measured("CCCn1c(-c2ccccc2)cc(C(=O)NCCN2CCN(c3cccc(Cl)c3Cl)CC2)c1C [Example 39, hydrochloride]")
2.61
>>> value_measured("CCn1c(C)c(C(=O)NCCCN2CCN(c3cccc(Cl)c3Cl)CC2)c(C)c1-c1ccccc1 [Example 80, hydrochloride]")
1.67
>>> value_measured("Cc1c(C(=O)NCCCN2CCN(c3cccc(Cl)c3Cl)CC2)cc(-c2ccccc2)n1N1CCCCC1")
1.83
>>> value_measured("CCCn1c(-c2ccccc2)cc(C(=O)NCCCN2CCN(c3cccc(Cl)c3)CC2)c1C")
2.28
>>> value_measured("CCn1c(-c2ccccc2)cc(C(=O)NCCCN2CCN(c3cccc(C)c3C)CC2)c1C")
1.88
>>> value_measured("Cc1cc(C(=O)NCCCN2CCN(c3cccc(Cl)c3Cl)CC2)c(C)n1-c1ccccc1")
2.12
>>> value_measured("Cc1c(C(=O)NCCCN2CCN(c3cccc(Cl)c3Cl)CC2)cc(-c2ccc(Cl)cc2)n1C [Example 62, hydrochloride]")
2.37

---

biological target: human recombinant serotonin 5-HT2A receptor (Homo sapiens, UniProt P28223); experiment: Binding affinity for serotonin 5-HT2A receptor ([3H]Ketanserin); settings: CHO-K1 expressed receptor, 1 nM [3H]Ketanserin
Where a name gives a salt, the structure may show the parent alone.
Decision: IC50 beneath 200 nM gives Met; IC50 meeting or exceeding 200 nM gives Not met.

>>> assigned_label("CCCn1c(-c2cccnc2)cc(C(=O)NCCCN2CCN(c3cccc(Cl)c3Cl)CC2)c1C")
"Met"
>>> assigned_label("CCCn1c(-c2ccccn2)cc(C(=O)NCCN2CCN(c3cccc(Cl)c3Cl)CC2)c1C [Example 96, dihydrochloride]")
"Not met"
>>> assigned_label("CCn1c(C(C)(C)C)cc(C(=O)NCCCN2CCN(c3cccc(C)c3C)CC2)c1C")
"Not met"
>>> assigned_label("Cc1c(C(=O)NCCCN2CCN(c3cccc(Cl)c3Cl)CC2)cc(-c2ccccc2)n1CC1CCCCC1")
"Not met"
>>> assigned_label("Cc1cccc(N2CCN(CCCNC(=O)c3cc(-c4ccc(Cl)cc4)n(C)c3C)CC2)c1C [Example 61, hydrochloride]")
"Not met"
>>> assigned_label("CCCn1c(-c2ccncc2)cc(C(=O)NCCCN2CCN(c3cccc(Cl)c3Cl)CC2)c1C")
"Met"
>>> assigned_label("Cc1[nH]c(-c2ccccc2)cc1C(=O)NCCN1CCN(c2cccc(Cl)c2Cl)CC1 [Example 38, hydrochloride]")
"Met"
>>> assigned_label("Cc1c(C(=O)NCCCN2CCN(c3cccc(Cl)c3Cl)CC2)cc(-c2ccccc2)n1-c1ccc(F)cc1")
"Met"
>>> assigned_label("Cc1[nH]c(-c2ccc(Cl)cc2)cc1C(=O)NCCN1CCN(c2cccc(Cl)c2Cl)CC1 [Example 67, hydrochloride]")
"Met"

---

Molecular target: human recombinant 5-HT2C receptor (Homo sapiens, UniProt P28335)
Sequence (P28335 33-458): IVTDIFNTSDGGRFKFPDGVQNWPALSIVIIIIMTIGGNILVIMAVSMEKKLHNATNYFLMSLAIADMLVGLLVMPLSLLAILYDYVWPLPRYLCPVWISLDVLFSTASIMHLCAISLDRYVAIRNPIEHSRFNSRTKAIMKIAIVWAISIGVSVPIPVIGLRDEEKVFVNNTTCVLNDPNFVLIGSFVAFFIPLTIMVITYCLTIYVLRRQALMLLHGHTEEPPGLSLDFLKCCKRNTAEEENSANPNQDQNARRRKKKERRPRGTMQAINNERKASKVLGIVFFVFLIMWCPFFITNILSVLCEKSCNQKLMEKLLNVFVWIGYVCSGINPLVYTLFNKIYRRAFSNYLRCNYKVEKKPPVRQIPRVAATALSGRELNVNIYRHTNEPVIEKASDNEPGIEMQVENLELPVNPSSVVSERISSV
Assay: Binding affinity for serotonin 5-HT2C receptor ([3H]Mesulergine)
Conditions: CHO-K1 membranes, 1.3 nM [3H]Mesulergine
Where a name gives a salt, the structure may show the parent alone.
Here the recorded IC50 is given for each entry.
endpoint: IC50 (nM)

>>> value_measured("C=CCCc1cc(C(=O)NCCCN2CCN(c3cccc(Cl)c3Cl)CC2)c(C)[nH]1")
157
>>> value_measured("Cc1cc(C(=O)NCCCN2CCN(c3cccc(Cl)c3Cl)CC2)c(C)n1-c1ccccc1")
98
>>> value_measured("CCCn1c(-c2ccccc2)cc(C(=O)NCCCCN2CCN(c3cccc(C)c3C)CC2)c1C [Example 33, hydrochloride]")
149
>>> value_measured("CCn1c(-c2ccccc2)cc(C(=O)NCCCN2CCN(c3cccc(Cl)c3Cl)CC2)c1C")
66
>>> value_measured("COc1cccc(-c2cc(C(=O)NCCCN3CCN(c4cccc(Cl)c4Cl)CC3)c(C)[nH]2)c1 [Example 83, hydrochloride]")
20
>>> value_measured("Cc1[nH]c(-c2ccccc2)cc1C(=O)NCCN1CCN(c2cccc(Cl)c2Cl)CC1 [Example 38, hydrochloride]")
37
>>> value_measured("Cc1c(C(=O)NCCCN2CCN(c3cccc(Cl)c3Cl)CC2)cc(-c2cccnc2)n1C")
209
>>> value_measured("Cc1c(C(=O)NCCCN2CCN(c3cccc(Cl)c3)CC2)cc(-c2ccccc2)n1-c1ccc(F)cc1")
443
>>> value_measured("CCn1c(-c2ccc(Cl)cc2)cc(C(=O)NCCN2CCN(c3cccc(Cl)c3Cl)CC2)c1C [Example 69, hydrochloride]")
29
>>> value_measured("Cc1[nH]c(-c2ccccc2)cc1C(=O)NCCCCN1CCN(c2cccc(Cl)c2Cl)CC1 [Example 41, hydrochloride]")
14
>>> value_measured("Cc1[nH]c(-c2ccc(Cl)cc2)cc1C(=O)NCCN1CCN(c2cccc(Cl)c2Cl)CC1 [Example 67, hydrochloride]")
23
>>> value_measured("CCn1c(-c2ccccc2)cc(C(=O)NCCCN2CCN(c3cccc(C)c3C)CC2)c1C")
139
>>> value_measured("Cc1cccc(N2CCN(CCCNC(=O)c3cc(-c4ccccc4)n(CC4CCCCC4)c3C)CC2)c1C")
638
>>> value_measured("O=C(NCCCN1CCN(c2cccc(Cl)c2Cl)CC1)c1c[nH]c(-c2ccccc2)c1")
106
>>> value_measured("CCCCn1c(-c2ccccc2)cc(C(=O)NCCCN2CCN(c3cccc(Cl)c3Cl)CC2)c1C [Example 71, hydrochloride]")
32

---

Target: human recombinant 5-HT2C receptor (Homo sapiens, UniProt P28335)
Sequence (P28335 33-458): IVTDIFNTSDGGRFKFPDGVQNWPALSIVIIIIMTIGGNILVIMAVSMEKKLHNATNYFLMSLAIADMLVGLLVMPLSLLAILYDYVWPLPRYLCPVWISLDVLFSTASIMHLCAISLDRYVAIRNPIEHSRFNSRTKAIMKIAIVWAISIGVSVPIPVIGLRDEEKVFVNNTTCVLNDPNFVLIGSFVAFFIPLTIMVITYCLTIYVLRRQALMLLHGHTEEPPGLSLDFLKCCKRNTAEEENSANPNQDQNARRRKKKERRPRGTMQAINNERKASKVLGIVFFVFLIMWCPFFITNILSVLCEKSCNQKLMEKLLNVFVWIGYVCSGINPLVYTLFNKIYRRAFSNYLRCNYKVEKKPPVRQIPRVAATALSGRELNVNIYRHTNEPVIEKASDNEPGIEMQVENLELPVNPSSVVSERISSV
Assay: Binding affinity for serotonin 5-HT2C receptor ([3H]Mesulergine)
Details: CHO-K1 membranes, 1.3 nM [3H]Mesulergine
pIC50: −log10 of the molar value. Counter-ions that a name gives are not always drawn.
endpoint: pIC50

>>> value_measured("CCCn1c(C)c(C(=O)NCCCN2CCN(c3cccc(Cl)c3Cl)CC2)c(C)c1-c1ccccc1 [Example 81, hydrochloride]")
7.12
>>> value_measured("CCCn1c(-c2ccccc2)cc(C(=O)NCCN2CCN(c3cccc(Cl)c3Cl)CC2)c1C [Example 39, hydrochloride]")
6.51
>>> value_measured("Cc1ccc2cccc(N3CCN(CCNC(=O)c4cc(-c5ccccc5)n(C)c4C)CC3)c2n1")
6.26
>>> value_measured("Cc1[nH]c(-c2ccc(Cl)cc2)cc1C(=O)NCCCN1CCN(c2cccc(Cl)c2Cl)CC1 [Example 45, hydrochloride]")
6.97
>>> value_measured("Cc1cccc(N2CCN(CCNC(=O)c3cc(C(C)(C)C)n(C)c3C)CC2)c1C")
6.64
>>> value_measured("Cc1[nH]c(C(C)(C)C)cc1C(=O)NCCCN1CCN(c2cccc(Cl)c2Cl)CC1 [Example 127, hydrochloride]")
5.86
>>> value_measured("Cc1cccc(N2CCN(CCCCNC(=O)c3cc(-c4ccccc4)[nH]c3C)CC2)c1C [Example 40, hydrochloride]")
7.20
>>> value_measured("Cc1c(Cl)cccc1N1CCN(CCNC(=O)c2cc(-c3ccccc3)n(C)c2C)CC1")
6.63
>>> value_measured("CCCn1c(-c2cccnc2)cc(C(=O)NCCCN2CCN(c3cccc(Cl)c3Cl)CC2)c1C")
6.46
>>> value_measured("Cc1[nH]c(-c2ccc(Cl)cc2)cc1C(=O)NCCCCN1CCN(c2cccc(Cl)c2Cl)CC1 [Example 47, hydrochloride]")
7.21
>>> value_measured("COc1cccc(N2CCN(CCCNC(=O)c3cc(-c4ccccc4)n(C)c3C)CC2)c1OC")
6.11
>>> value_measured("O=C(NCCCN1CCN(c2cccc(Cl)c2Cl)CC1)c1cc(-c2ccccc2)[nH]c1Cl")
6.97
>>> value_measured("Cc1c(C(=O)NCCCN2CCN(c3cccc(Cl)c3Cl)CC2)cc(-c2ccccn2)n1C [Example 92, dihydrochloride]")
6.57
>>> value_measured("Cc1c(C(=O)NCCCN2CCN(c3cccc(Cl)c3Cl)CC2)cc(C(C)(C)C)n1C")
5.99
>>> value_measured("Cc1cccc(N2CCN(CCCNC(=O)c3cc(-c4ccccc4)[nH]c3C)CC2)c1C")
6.21
